Cited source: PubChem BioAssay AID1845198

Test system: 425362-245-T-J1 tumor spheroids, viability % test/control;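 also: spheroids exposed to agents for 7 days; 100% = DMSO vehicle control viability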
Assay: Anticancer human tumor 425362-245-T-J1 patient-derived melanoma cell line growth inhibition; active = viability on the fitted dose curve at most 10% of control; inactive = the rest
Measurement conditions: second compound 0.0003 µM; first compound 0.316 µM; spheroids with HUVEC and MSC
Reply using exactly one outcome from class 1 = active, class 0 = inactive

[[record]]
compound = "COc1cc(C)[nH]c(=O)c1CN1CCc2c(Cl)cc(C(OC)C3COC3)c(Cl)c2C1=O (stereo unspecified) + COc1cc2c(cc1O)CCNC21CSC2c3c(OC(C)=O)c(C)c4c(c3C(COC1=O)N1C(O)C3Cc5cc(C)c(OC)c(O)c5C(C21)N3C)OCO4"
class = "class 0"

[[record]]
compound = "COc1ccc([C@@H](O)c2cc(-c3ncnc4cc(N5CCOCC5)ccc34)c(F)cc2Cl)nn1 + COc1cc2c(cc1O)CCNC21CSC2c3c(OC(C)=O)c(C)c4c(c3C(COC1=O)N1C(O)C3Cc5cc(C)c(OC)c(O)c5C(C21)N3C)OCO4"
class = "class 0"


Outcome logged for CC1COCCN1c1cc(-c2ccnn2C)c2ccnc(-c3ccn[nH]3)c2n1 (stereo unspecified) + COc1cc2c(cc1O)CCNC21CSC2c3c(OC(C)=O)c(C)c4c(c3C(COC1=O)N1C(O)C3Cc5cc(C)c(OC)c(O)c5C(C21)N3C)OCO4 in this assay:
class 1

Outcome logged for [2H]c1nc(C)nc([2H])c1-c1cc(NC[C@@H](C)c2cccc3c(C(=O)NC)ccnc23)ncn1 + COc1cc2c(cc1O)CCNC21CSC2c3c(OC(C)=O)c(C)c4c(c3C(COC1=O)N1C(O)C3Cc5cc(C)c(OC)c(O)c5C(C21)N3C)OCO4 in this assay:
class 0

Outcome logged for Cc1cc(C)c(CNC(=O)c2cc(-c3ccc(CN4CCOCC4)cc3)cc3c2cnn3C2CCCC2)c(=O)[nH]1 + COc1cc2c(cc1O)CCNC21CSC2c3c(OC(C)=O)c(C)c4c(c3C(COC1=O)N1C(O)C3Cc5cc(C)c(OC)c(O)c5C(C21)N3C)OCO4 in this assay:
class 0

Outcome logged for CC(C)n1c(=O)n(C)c2cnc3cc(F)c(-c4ccc(OCCCN5CCCCC5)nc4)cc3c21 + COc1cc2c(cc1O)CCNC21CSC2c3c(OC(C)=O)c(C)c4c(c3C(COC1=O)N1C(O)C3Cc5cc(C)c(OC)c(O)c5C(C21)N3C)OCO4 in this assay:
class 1
